Target: T1, a proliferation-inducing ligand (APRIL) homotrimer, recombinant (human, UniProt O75888 110-250)
T1 construct: APRIL, recombinant soluble homotrimer; Six lots were used for SPR; also called homotrimeric APRIL
T1 sequence (looked up): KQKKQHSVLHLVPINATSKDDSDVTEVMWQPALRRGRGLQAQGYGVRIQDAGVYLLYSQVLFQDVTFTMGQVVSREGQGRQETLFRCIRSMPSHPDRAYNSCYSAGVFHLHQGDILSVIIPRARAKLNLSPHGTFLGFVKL
Assay: SPR; Biacore 3000; atacicept, BCMA-Ig and BAFF-R-Ig covalently immobilized on a CM4 chip; ligands ~0.05 to 20 nMol/L flowed at 50 ul/min, 25 C; 20 mmol/L sodium phosphate, 150 mmol/L NaCl, 0.05% polysorbate 20, pH 7.5; KD from ka and kd, global fit to a 1:1 model; stoichiometry not determined
Conditions: both partners purified
Measure Name: Kd

Request: So what does the record say about Kd for B-cell maturation antigen (BCMA)-immunoglobulin (Ig) (Fc fusion, UniProt Q02223 1-54, looked up, BCMA, soluble receptor-Fc fusion protein; Construct not described in the main text; Additional file 1 may describe it; also called BCMA-Ig) MLQMAGQCSQNEYFDSLLHACIPCQLRCSSNTPPLTCQRYCNASVTNSVKGTNA ?
Response: 0.1 to 0.3 pM
